# Test system: SK-LU-1
# Measurement Description: relative viability (nuclei count vs DMSO), 5 days (fraction); higher = more cells survive
# Condition Summary: first compound 0.8 µM

# Molecule, Target Desc, relative viability
measured = [
    ("COc1nc(C)cnc1NS(=O)(=O)c1cccnc1-c1ccc(-c2nnco2)cc1 [Zibotentan] + CS(=O)(=O)CCNCc1ccc(-c2ccc3ncnc(Nc4ccc(OCc5cccc(F)c5)c(Cl)c4)c3c2)o1 [Lapatinib] (partner 2 µM)", "SK-LU-1", 0.928),
    ("COc1nc(C)cnc1NS(=O)(=O)c1cccnc1-c1ccc(-c2nnco2)cc1 [Zibotentan] + Nc1nc2[nH]cc(CCc3ccc(C(=O)N[C@@H](CCC(=O)O)C(=O)O)cc3)c2c(=O)[nH]1 [Pemetrexed] (partner 0.2 µM)", "SK-LU-1", 1.01),
    ("O=c1cc(-c2cccc3c2Sc2ccccc2S3)oc(N2CCOCC2)c1 + C[C@]1(O)C[C@@H](c2nc(-c3ccc4ccc(-c5ccccc5)nc4c3)c3c(N)nccn32)C1 [Linsitinib] (partner 1 µM)", "SK-LU-1", 1.27),
    ("O=c1cc(-c2cccc3c2Sc2ccccc2S3)oc(N2CCOCC2)c1 + Cc1cc(Nc2cc(N3CCN(C)CC3)nc(Sc3ccc(NC(=O)C4CC4)cc3)n2)n[nH]1 [Tozasertib] (partner 0.1 µM)", "SK-LU-1", 0.313),
]

---

Each entry below carries its recorded relative viability.
# System: NCI-H838
# Measurement Description: relative viability (nuclei count vs DMSO), 5 days (fraction); higher = more cells survive
# Condition Summary: first compound 2.53 µM

# Compound, relative viability
measured = [
    ("O=c1cc(-c2cccc3c2Sc2ccccc2S3)oc(N2CCOCC2)c1 + CCNC(=O)c1noc(-c2cc(C(C)C)c(O)cc2O)c1-c1ccc(CN2CCOCC2)cc1 [Luminespib] (partner 0.01 µM)", 0.313),
    ("O=c1cc(-c2cccc3c2Sc2ccccc2S3)oc(N2CCOCC2)c1 + CC1(C)CCC(c2ccc(Cl)cc2)=C(CN2CCN(c3ccc(C(=O)NS(=O)(=O)c4ccc(N[C@H](CCN5CCOCC5)CSc5ccccc5)c(S(=O)(=O)C(F)(F)F)c4)cc3)CC2)C1 [Navitoclax] (partner 0.5 µM)", 1.02),
    ("O=c1cc(-c2cccc3c2Sc2ccccc2S3)oc(N2CCOCC2)c1 + COc1cccc2cc(-c3nc([C@H]4CC[C@H](C(=O)O)CC4)n4ncnc(N)c34)[nH]c12 [OSI-027] (partner 0.5 µM)", 0.339),
    ("COc1nc(C)cnc1NS(=O)(=O)c1cccnc1-c1ccc(-c2nnco2)cc1 [Zibotentan] + CC1(C)CCC(c2ccc(Cl)cc2)=C(CN2CCN(c3ccc(C(=O)NS(=O)(=O)c4ccc(N[C@H](CCN5CCOCC5)CSc5ccccc5)c(S(=O)(=O)C(F)(F)F)c4)cc3)CC2)C1 [Navitoclax] (partner 0.5 µM)", 1.24),
]

---

Each entry below carries its recorded relative viability.
# Tested on: IA-LM
# Measurement Description: relative viability (nuclei count vs DMSO), 5 days (fraction); higher = more cells survive
# Condition Summary: first compound 0.6325 µM
Measurement Label: relative viability

# Compound, Target Desc, Measurement Label, Recorded Number
rows = [
    ("COCC1(CO)C(=O)C2CCN1CC2 (stereo not given) [PRIMA-1MET] + CS(=O)(=O)CCNCc1ccc(-c2ccc3ncnc(Nc4ccc(OCc5cccc(F)c5)c(Cl)c4)c3c2)o1 [Lapatinib] (partner 2 µM)", "IA-LM", "relative viability", 0.746),
    ("COCC1(CO)C(=O)C2CCN1CC2 (stereo not given) [PRIMA-1MET] + O=C(c1cc(Cc2n[nH]c(=O)c3ccccc23)ccc1F)N1CCN(C(=O)C2CC2)CC1 [Olaparib] (partner 8 µM)", "IA-LM", "relative viability", 0.676),
    ("COCC1(CO)C(=O)C2CCN1CC2 (stereo not given) [PRIMA-1MET] + O=C(CCCCCCC(=O)Nc1ccccc1)NO [Vorinostat] (partner 1 µM)", "IA-LM", "relative viability", 0.74),
    ("COCC1(CO)C(=O)C2CCN1CC2 (stereo not given) [PRIMA-1MET] + C[C@]1(O)C[C@@H](c2nc(-c3ccc4ccc(-c5ccccc5)nc4c3)c3c(N)nccn32)C1 [Linsitinib] (partner 1 µM)", "IA-LM", "relative viability", 0.661),
    ("COCC1(CO)C(=O)C2CCN1CC2 (stereo not given) [PRIMA-1MET] + Cc1nc(NC(=O)N2CCC[C@H]2C(N)=O)sc1-c1ccnc(C(C)(C)C(F)(F)F)c1 [Alpelisib] (partner 2 µM)", "IA-LM", "relative viability", 0.863),
]
